Test system: A498
ASSAY REMARKS: NCI tumour cell line growth inhibition, 48 h
Calls of active or inactive are those of the source. Cut-off read from the data, not from the text of the source: active = GI50 up to about 1.1 µM and inactive = higher.
Measured GI50, listed per entry.

COMPOUND	OBS VALUE
Cn1nc(-c2ccccc2)c(C(=O)/C=C/c2ccccc2)c(N2CCCC2)c1=O	11.4 µM (inactive)

Return GI50 measured with A498 given this compound: "O=C(/C=C/c1ccc(Cl)c(Cl)c1)c1cccc2ccccc12" 22.5 µM (inactive)

Return GI50 measured with A498 given this compound: "COc1cccc(CCCNC(=O)Cc2cc(OC)c(OC)cc2CO)c1" > 100 µM (inactive)

* * *

System: HL-60
ASSAY REMARKS: NCI tumour cell line growth inhibition, 48 h
Activity calls are given as the source filed them. Cut-off read from the data, not from the text of the source: active = GI50 up to about 1.1 µM and inactive = higher.
VALUE TYPE: GI50

Examples with their reported GI50 follow.
MOLECULE	VALUE TYPE	OBS VALUE
Cc1c2cc[n+](C)cc2c(C)c2c1[nH]c1ccccc12	GI50	8.69 µM (inactive)
COC(=O)C1=C(C(=O)OC)SC(=C2S[C@@H]3[C@@H]4C[C@H]([C@@H]3S2)[C@H]2C(=O)OC(=O)[C@@H]42)S1	GI50	> 100 µM (inactive)
CCOC(=O)CC[C@H](NC(=O)[C@H](N)Cc1ccc(N(CCCl)CCCl)cc1)C(=O)OCC	GI50	5.3 µM (inactive)

Turning now to a further record.
Returns the measured GI50 for the input molecule. Input: CC1COS(=O)O1 (centres undefined) > 100 µM (inactive)

* * *

Tested on: Malme-3M
ASSAY REMARKS: NCI tumour cell line growth inhibition, 48 h
The source made the active and inactive calls. No stated cut-off is given here; in the data, active = GI50 up to about 1.1 µM and inactive = higher.
Would you mind answering with one of these outcomes? active, inactive

Below are worked cases with known answers.
COMPOUND	ASSIGNED LABEL
COc1ccc(/C=C/C(=O)c2sc(N)nc2C)cc1	inactive
COc1ccc(-n2c(C)nc3ccc(NC4OC(COC(C)=O)C(OC(C)=O)C(OC(C)=O)C4OC(C)=O)cc3c2=O)cc1 (stereo not given)	inactive

What was the test verdict on "CCCCCCCCCc1c(O)c(O)c(CCCCCCCCC)c(CCCCCCCCC)c1CCCCCCCCC" ? inactive

What was the test verdict on "C=COC(=O)N[C@H]1CCc2cc(OC)c(OC)c(OC)c2-c2ccc(SC)c(=O)cc21" ? active

What was the test verdict on CC1COS(=O)O1 (stereo not given) ? inactive

* * *

Tested on: MOLT-4
ASSAY REMARKS: NCI tumour cell line growth inhibition, 48 h
Activity calls are given as the source filed them. Cut-off read from the data, not from the text of the source: active = GI50 up to about 1.1 µM and inactive = higher.
Would you mind answering with one of these outcomes? active, inactive

Below are worked cases with known answers.
COMPOUND	ASSIGNED LABEL
CC1(CO)COS(=O)OC1 (configuration not stated)	inactive
COc1cc(C2c3cc4c(cc3OC(NC3CCCCC3)C2C)OCO4)cc(OC)c1OC (configuration not stated)	active
CCOc1cc(C2SCC(=O)N2c2ccc3c(c2)Oc2c(Cl)c4c(c(Cl)c2=N3)Oc2cc(N3C(=O)CSC3c3ccc(O)c(OCC)c3)ccc2N=4)ccc1O (configuration not stated)	inactive

What was the test verdict on CN(C)CC1CCC/C(=C\c2ccc(OC(=O)c3ccc(Cl)cc3)cc2)C1=O (configuration not stated) ? active

What was the test verdict on FC(F)(F)c1ccc2c(c1)nc1n2C(c2c(Cl)cccc2Cl)SC1 (configuration not stated) ? inactive

What was the test verdict on "CC12ON(P(=O)(c3ccccc3)c3ccccc3)C(C)(c3ccccc31)c1ccccc12" ? inactive

What was the test verdict on "COc1ccc(/C=C/C(=O)c2sc(N)nc2C)cc1" ? inactive
